test system: U2OS; assay: Incucyte cell viability with U2OS; type: toxicity, cell-based; conditions: human, 18 h, 10 µM, compound concentration 10 uM, replicate number 2, timepoint 18 hours; also: filed as whole numbers so only -1 and 0 and 1 occur
measured-metric: Growth Rate
Give your answer as a number; write no unit.

Use these answered entries as a reference point.
compound | assayed-system | Growth Rate
C[C@H](c1ccnc(Nc2nc3ccc(-c4cc(N(C)C)ncn4)cc3[nH]2)c1)N1CCN(C(=O)CC(F)(F)F)CC1 [BAY-985] | U2OS | 1
CCCCc1nc2ccc(NC(=O)NC3CCCCC3)cc2n1Cc1ccc(-c2ccccc2C(=O)O)cc1 | U2OS | 1
CCN(CC)CCCCC1CCN(CC(=O)N2c3ccccc3C(=O)Nc3cccnc32)CC1 | U2OS | 0
Cn1cc(-c2ccc3occ(-c4ccccc4-c4ccccc4)c3n2)cn1 | U2OS | 1
CC(C)CC(=O)N1CCc2nc(-c3ccc(Br)cc3)nc(N(C)Cc3ccccc3)c2C1 [THPP-1-NC] | U2OS | 1

Briefly, Growth Rate measured for FC(F)(F)c1c(N2CCC(c3ccccc3)CC2)ccn2c(CC3CC3)nnc12 : 1

Form field Growth Rate, entry Cc1cc(C)cc(C(=O)N(C)[C@H](Cc2ccc(-c3ccccc3)cc2)C(=O)N[C@@H](Cc2c[nH]c3ccccc23)C(=O)O)c1 : 1

Lab book: Growth Rate of Cc1c(Oc2ccc(F)cc2)c(OC(C)C)nn1-c1ccc(C2CC2)cn1 [IPP/CNRS-A019] noted as 0

// field: Growth Rate; key: CCCOc1ccc([C@@H]2[C@@H](C(=O)O)[C@H](c3ccc4c(c3)OCO4)CN2CC(=O)Nc2c(CC)cccc2CC)cc1 [A-1806262] ; value = 0

Growth Rate measured on CCC(=O)N[C@H]1CC[C@@H](C(=O)N(C)c2ccc(-c3nc4ccccc4o3)cc2)C1 [BI 99179] = 0

Entry CN(C)C(=O)c1ccc(-c2cc(C(=O)N(C)C3CCCC3)no2)cc1O — recorded Growth Rate = 0

---

tested on: HEK-293T; assay: Multiplex assay against HEK293T; type: toxicity, cell-based; conditions: human, 24 h, 10 µM, compound concentration 10 uM, replicate 1
measured-metric: Population Normal (%)
Give just the numeric value; % need not be written.

compound | assayed-system | unit-descriptor | Population Normal (%)
Cc1cc2c(cc1N1C(=O)c3cccc4c(CCCO)ccc(c34)C1=O)n(C)c(=O)n2C | HEK-293T | % | 88
CN(C)CCOc1ccc(-c2nc(-c3ccncc3)c(-c3ccc4c(c3)CC/C4=N\O)[nH]2)cc1 | HEK-293T | % | 94
CCn1c(-c2nonc2N)nc2cnc(Oc3cccc(NC(=O)c4ccc(OCCN5CCOCC5)cc4)c3)cc21 [GSK-269962A] | HEK-293T | % | 87
CNC(=O)c1cc(Oc2ccc(NC(=O)Nc3cc(C(C)(C)C)nn3-c3ccc4ncccc4c3)c(F)c2)ccn1 | HEK-293T | % | 84
CN(C)C/C=C/C(=O)Nc1cc2c(Nc3ccc(F)c(Cl)c3)ncnc2cc1O[C@H]1CCOC1.O=C(O)/C=C\C(=O)O.O=C(O)/C=C\C(=O)O [AFATINIB DIMALEATE] | HEK-293T | % | 80
N#Cc1cnc(Nc2cc(NC[C@H]3CNCCO3)c(C(F)(F)F)cn2)cn1 | HEK-293T | % | 89
CC(C)N1CCC(C)(C)c2cc(C#Cc3ccc(C(=O)O)cc3)ccc21 | HEK-293T | % | 37

Kindly note the recorded Population Normal (%) for Nc1nc2c(c(N3CCNCC3)n1)CCC1=C2[C@@H]2CCCC[C@@H]2O1 , which is 72
